Where do these numbers come from? They come from patent US20230295162A1.

# Test system: Panc-1 (pancreas, carcinoma) cells
# Protocol: Cell viability assay, CellTiter-Glo (Example 21)
# Assay type: cell-based, human
# Details: 300 nM, 72 h treatment
This section presents compounds with their documented Panc-1 (pancreas, carcinoma) cell viability (% of control) values.

Compound: [N-]=[N+]=Nc1cccc(CN2CCC3=C(C2)C(=O)N(Cc2ccc(Cl)cc2)C2=NCCN23)c1 [I/133]
Reported: 55.7 ± 2.5 % of control

Compound: [N-]=[N+]=Nc1cccc(CN2CCC3=C(C2)C(=O)N(Cc2ccc(C(F)(F)F)cc2)C2=NCCN23)c1 [I/111]
Reported: 49.7 ± 1.2 % of control

Compound: O=C1C2=C(CCN(Cc3ccccc3)C2)N2CCN=C2N1Cc1ccc(C(F)(F)F)cc1 [I/1, reference compound]
Reported: 56.9 ± 2.4 % of control

Moving on to the next compound.
May I ask what Panc-1 (pancreas, carcinoma) cell viability (% of control) has been recorded for O=C1C2=C(CCN(Cc3cccc(F)c3)C2)N2CCN=C2N1Cc1ccc(C(F)(F)F)cc1 [I/3, reference compound] ?
53.9 ± 6.5 % of control

---

# Test system: Detroit 562 (pharynx, carcinoma) cells
# Protocol: Cell viability assay, CellTiter-Glo (Example 21)
# Assay type: cell-based, human
# Details: 3.7 nM, 72 h treatment
Reported Property: Detroit 562 (pharynx, carcinoma) cell viability (% of control)

Compound: O=C1C2=C(CCN(Cc3ccccc3)C2)N2CCN=C2N1Cc1ccc(C(F)(F)F)cc1 [I/1, reference compound]
Reported: 104.1 ± 4.8 % of control

Compound: O=C1C2=C(CCN(Cc3cc(F)cc(F)c3)C2)N2CCN=C2N1Cc1ccc(F)cc1 [I/7]
Reported: 35.1 ± 5.8 % of control

Compound: [N-]=[N+]=Nc1ccc(CN2C(=O)C3=C(CCN(Cc4cc(F)cc(F)c4)C3)N3CCN=C23)cc1 [I/107]
Reported: 86.6 ± 5.7 % of control

Moving on to the next compound.
May I ask what Detroit 562 (pharynx, carcinoma) cell viability (% of control) has been recorded for [N-]=[N+]=Nc1cccc(CN2CCC3=C(C2)C(=O)N(Cc2ccc(Cl)cc2)C2=NCCN23)c1 [I/133] ?
47.1 ± 16.0 % of control

---

# System: MDA-MB-453 (breast, carcinoma) cells
# Protocol: Cell viability assay, CellTiter-Glo (Example 21)
# Format: cell-based, human
# Details: 100 nM, 72 h treatment
This section presents molecules with their documented MDA-MB-453 (breast, carcinoma) cell viability (% of control) values.

Molecule: O=C1C2=C(CCN(Cc3cccc(F)c3)C2)N2CCN=C2N1Cc1ccc(F)cc1 [I/6, reference compound]
Reported: 33.9 ± 1.3 % of control

Molecule: [N-]=[N+]=Nc1cccc(CN2CCC3=C(C2)C(=O)N(Cc2ccc(Cl)cc2)C2=NCCN23)c1 [I/133]
Reported: 31.9 ± 1.3 % of control

Moving on to the next molecule.
May I ask what MDA-MB-453 (breast, carcinoma) cell viability (% of control) has been recorded for O=C1C2=C(CCN(Cc3cccc(F)c3)C2)N2CCN=C2N1Cc1ccc(C(F)(F)F)cc1 [I/3, reference compound] ?
33.2 ± 2.0 % of control

---

# System: FaDu (pharynx, squamous cell carcinoma) cells
# Protocol: Cell viability assay, CellTiter-Glo (Example 21)
# Format: cell-based, human
# Details: 300 nM, 72 h treatment
This section presents compounds with their documented FaDu (pharynx, squamous cell carcinoma) cell viability (% of control) values.

# annotated cases, reported FaDu (pharynx, squamous cell carcinoma) cell viability (% of control) shown
Compound: [N-]=[N+]=Nc1cccc(CN2CCC3=C(C2)C(=O)N(Cc2ccc(C(F)(F)F)cc2)C2=NCCN23)c1
Assay System: FaDu (pharynx, squamous cell carcinoma) cells
Reported: 22.1 ± 4.8 % of control

Compound: [N-]=[N+]=Nc1ccc(CN2C(=O)C3=C(CCN(Cc4cc(F)cc(F)c4)C3)N3CCN=C23)cc1
Assay System: FaDu (pharynx, squamous cell carcinoma) cells
Reported: 25.5 ± 4.3 % of control

Compound: O=C1C2=C(CCN(Cc3cccc(F)c3)C2)N2CCN=C2N1Cc1ccc(F)cc1 [I/6, reference compound]
Assay System: FaDu (pharynx, squamous cell carcinoma) cells
Reported: 25.2 ± 4.6 % of control

Moving on to the next compound.
May I ask what FaDu (pharynx, squamous cell carcinoma) cell viability (% of control) has been recorded for `O=C1C2=C(CCN(Cc3cc(F)cc(F)c3)C2)N2CCN=C2N1Cc1ccc(F)cc1` ?
26.1 ± 4.5 % of control

---

This section presents compounds with their documented melting point values.
# do not omit the unit; it follows the number

Compound Structure: Nc1cccc(CN2C(=O)C3=C(CCN(Cc4cc(F)cc(F)c4)C3)N3CCN=C23)c1
melting point: 114.5 °C

May I ask what melting point has been recorded for `[N-]=[N+]=Nc1cccc(CN2C(=O)C3=C(CCN(Cc4cc(F)cc(F)c4)C3)N3CCN=C23)c1` ?
158 °C

May I ask what melting point has been recorded for `[N-]=[N+]=Nc1ccc(CN2C(=O)C3=C(CCN(Cc4cc(F)cc(F)c4)C3)N3CCN=C23)cc1` ?
155.5 °C

---

# Tested on: Panc-1 (pancreas, carcinoma) cells
# Protocol: Cell viability assay, CellTiter-Glo (Example 21)
# Format: cell-based, human
# Details: 100 nM, 72 h treatment
Reported Property: Panc-1 (pancreas, carcinoma) cell viability (% of control)

Compound Structure: O=C1C2=C(CCN(Cc3cc(F)cc(F)c3)C2)N2CCN=C2N1Cc1ccc(Cl)cc1
Reported: 50.9 ± 0.3 % of control

Notebook: pull reported Panc-1 (pancreas, carcinoma) cell viability (% of control) for Panc-1 (pancreas, carcinoma) cells, entry `O=C1C2=C(CCN(Cc3cc(F)cc(F)c3)C2)N2CCN=C2N1Cc1ccc(F)cc1`
60.0 ± 3.6 % of control

Notebook: pull reported Panc-1 (pancreas, carcinoma) cell viability (% of control) for Panc-1 (pancreas, carcinoma) cells, entry `O=C1C2=C(CCN(Cc3cc(F)cc(F)c3)C2)N2CCN=C2N1Cc1ccc(C(F)(F)F)cc1`
46.4 ± 3.1 % of control

---

This section presents compounds with their documented DU 145 cell viability values.
# Test system: DU 145 (prostate, carcinoma) cells
# Protocol: Cell viability assay, CellTiter-Glo (Example 21)
# Type: cell-based, human
# Details: 11.1 nM, 72 h

Compound: O=C1C2=C(CCN(Cc3cc(F)cc(F)c3)C2)N2CCN=C2N1Cc1ccc(C(F)(F)F)cc1
Assay System: DU 145 (prostate, carcinoma) cells
DU 145 cell viability: 7.0 ± 0.9 % of control

Compound: [N-]=[N+]=Nc1ccc(CN2C(=O)C3=C(CCN(Cc4cc(F)cc(F)c4)C3)N3CCN=C23)cc1
Assay System: DU 145 (prostate, carcinoma) cells
DU 145 cell viability: 48.7 ± 1.7 % of control

Compound: O=C1C2=C(CCN(Cc3cccc(F)c3)C2)N2CCN=C2N1Cc1ccc(F)cc1 [I/6, reference compound]
Assay System: DU 145 (prostate, carcinoma) cells
DU 145 cell viability: 93.4 ± 2.2 % of control

May I ask what DU 145 cell viability has been recorded for `[N-]=[N+]=Nc1cccc(CN2CCC3=C(C2)C(=O)N(Cc2ccc(Cl)cc2)C2=NCCN23)c1` ?
45.7 ± 4.4 % of control

May I ask what DU 145 cell viability has been recorded for O=C1C2=C(CCN(Cc3ccccc3)C2)N2CCN=C2N1Cc1ccc(C(F)(F)F)cc1 [I/1, reference compound] ?
101.3 ± 4.3 % of control

---

# System: PC-3 (prostate, adenocarcinoma) cells
# Protocol: Cell viability assay, CellTiter-Glo (Example 21)
# Assay type: cell-based, human
# Details: 300 nM, 72 h treatment
Reported Property: PC-3 (prostate, adenocarcinoma) cell viability (% of control)

Compound: O=C1C2=C(CCN(Cc3cccc(F)c3)C2)N2CCN=C2N1Cc1ccc(C(F)(F)F)cc1 [I/3, reference compound]
Reported: 32.3 ± 2.6 % of control
//
Compound: O=C1C2=C(CCN(Cc3cccc(F)c3)C2)N2CCN=C2N1Cc1ccc(F)cc1 [I/6, reference compound]
Reported: 34.1 ± 2.0 % of control
//
Compound: [N-]=[N+]=Nc1ccc(CN2C(=O)C3=C(CCN(Cc4cc(F)cc(F)c4)C3)N3CCN=C23)cc1 [I/107]
Reported: 32.8 ± 4.1 % of control
//
Compound: O=C1C2=C(CCN(Cc3cc(F)cc(F)c3)C2)N2CCN=C2N1Cc1ccc(Cl)cc1 [I/124]
Reported: 32.7 ± 14.4 % of control

May I ask what PC-3 (prostate, adenocarcinoma) cell viability (% of control) has been recorded for O=C1C2=C(CCN(Cc3cc(F)cc(F)c3)C2)N2CCN=C2N1Cc1ccc(C(F)(F)F)cc1 [I/30] ?
31.3 ± 2.5 % of control

May I ask what PC-3 (prostate, adenocarcinoma) cell viability (% of control) has been recorded for O=C1C2=C(CCN(Cc3cc(F)cc(F)c3)C2)N2CCN=C2N1Cc1ccc(F)cc1 [I/7] ?
34.3 ± 3.4 % of control

May I ask what PC-3 (prostate, adenocarcinoma) cell viability (% of control) has been recorded for [N-]=[N+]=Nc1cccc(CN2CCC3=C(C2)C(=O)N(Cc2ccc(Cl)cc2)C2=NCCN23)c1 [I/133] ?
32.9 ± 4.6 % of control

May I ask what PC-3 (prostate, adenocarcinoma) cell viability (% of control) has been recorded for [N-]=[N+]=Nc1cccc(CN2CCC3=C(C2)C(=O)N(Cc2ccc(C(F)(F)F)cc2)C2=NCCN23)c1 [I/111] ?
31.3 ± 3.0 % of control
